These data points were gathered from paper PMC3124622.

SUBJECT OF TEST: E. coli TGT C145V/T146V/P147N/V217G (Escherichia coli, UniProt P0A847, C145V/P147N/T146V/V217G)
PROTOCOL TEXT: Pteridine inhibition of guanine incorporation
EXPERIMENTAL CONTEXT: C145V/T146V/P147N/V217G (quadruple) mutant; vs guanine; 20 μM tRNA, pH 7.3
ENDPOINT LABEL: Ki (µM)
Just the number in µM, nothing appended.

Query `Nc1nc2nccnc2c(=O)[nH]1` yields Ki of 37

* * *

SUBJECT OF TEST: E. coli TGT C145V/T146V/V217G (Escherichia coli, UniProt P0A847, C145V/T146V/V217G)
PROTOCOL TEXT: Pteridine inhibition of guanine incorporation
Type: biochemical
EXPERIMENTAL CONTEXT: C145V/T146V/V217G (triple) mutant; vs guanine; 20 μM tRNA, pH 7.3
ENDPOINT LABEL: Ki (nM)
Just the number in nM, nothing appended.

Query Nc1nc2nccnc2c(=O)[nH]1 [Pterin, pterin] yields Ki of 1300

* * *

SUBJECT OF TEST: E. coli TGT Wild-Type (Escherichia coli, UniProt P0A847)
ENDPOINT LABEL: pKi
Interpret pKi as the negative base-10 log of the concentration measured in mol/L.

pKi value, target or system E. coli TGT Wild-Type (Escherichia coli, UniProt P0A847), for Nc1nc2nccnc2c(=O)[nH]1 [Pterin, pterin] : 6.38
